# protocol: Volume of distribution at steady state in human at 100 mg, iv
# Assay type: ADME, organism-based
# condition-notes: in vivo, read-out: Vdss
parameter: Vd (L/kg)
Numbers only, in L/kg.

## Input # lookup: Vd of O=C(O)CCCCO/N=C(/c1cccnc1)c1cccc(C(F)(F)F)c1
## Output 0.43

----------
# protocol: Volume of distribution at steady state in human at 10 mg, iv
# Format: ADME, organism-based
# condition-notes: in vivo, read-out: Vdss
parameter: Vd (L/kg)
One number for each entry, in L/kg.

## Input I have this molecule here, CN(c1nc2ccccc2s1)C1CCN(CC(O)COc2ccc(F)cc2)CC1 (stereo unspecified) [SABELUZOLE] , and I need its recorded Vd.
## Output 5.5

----------
# protocol: Half life in human given 31 administration across 6 doses 2.5 to 25 mg administered 30 mins infusion each dose separated by 13 days
# Format: ADME, organism-based
# condition-notes: in vivo, iv
parameter: half-life

## Input Quick one: half-life for CN(c1nc2ccccc2s1)C1CCN(C[C@H](O)COc2ccc(F)c(F)c2)CC1 ?
## Output 19.8 h

----------
# protocol: Volume of distribution at steady state in human at 0.2 mg, iv
# Format: ADME, organism-based
# condition-notes: in vivo, read-out: Vdss
parameter: Vd (L/kg)
Give bare numbers, in L/kg.

## Input Reported Vd, molecule C[C@@H]1CN([C@H]2CC[C@](C#N)(c3ccc(F)cc3)CC2)CC[C@]1(C(=O)O)c1ccccc1 : ____
## Output 1.17

----------
# protocol: Mean residence time in human administered three way cross over study in 11, 10 and 12 healthy subjects at 5, 10, 15 mg dose respectively as 1 hr infusion
# Format: ADME, organism-based
# condition-notes: in vivo, intravenous
parameter: MRT (h)
Answers are plain numbers, in h.

## Input Name the recorded MRT for CN(c1nc2ccccc2s1)C1CCN(C[C@H](O)COc2ccc(F)c(F)c2)CC1 [LUBELUZOLE] .
## Output 28.7

----------
# protocol: Volume of distribution at steady state in human at 15 ng/kg/min, iv administered 150 mins infusion
# Assay type: ADME, organism-based
# condition-notes: in vivo, read-out: Vdss
parameter: Vd
Returns: string containing the number followed by the unit.

## Input Field request: Vd | item: CCCCC[C@H](O)CC[C@@H]1[C@H]2Cc3cccc(OCC(=O)O)c3C[C@H]2C[C@H]1O [TREPROSTINIL]
## Output 0.23 L/kg

----------
# protocol: Mean residence time in human at 2 mg, iv
# Assay type: ADME, organism-based
# condition-notes: in vivo
parameter: MRT (h)
Give bare numbers, in h.

## Input Query: MRT; subject: CCc1nc2c(N)nc3ccccc3c2n1CCCCNS(C)(=O)=O
## Output 4.7

----------
# protocol: Mean residence time in human given 31 administration across 6 doses 2.5 to 25 mg administered 30 mins infusion each dose separated by 13 days
# Assay type: ADME, organism-based
# condition-notes: in vivo, iv
parameter: MRT (h)
One number for each entry, in h.

## Input Reported MRT, compound CN(c1nc2ccccc2s1)C1CCN(C[C@H](O)COc2ccc(F)c(F)c2)CC1 : ____
## Output 23.3

----------
# protocol: Half life in human at 2 mg, iv
# Type: ADME, organism-based
# condition-notes: in vivo
parameter: half-life

## Input What value of measured half-life is listed for CCc1nc2c(N)nc3ccccc3c2n1CCCCNS(C)(=O)=O ?
## Output 7.1 h
